Test: binders of probe aFSTL3 on microarray, primary screen, stem cell growth factor project, biochemical, small-molecule microarray, fluorescence 635/667 (AID 1064);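 note: measures binding of the biotinylated anti-FSTL3 antibody to printed compounds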
Conditions: higher = more signal
Criterion: composite z-score meeting or surpassing -0.2. Met: True. Not met: False.

// known answers, use as guide
CC(C)N1CC=CC23O[C@@H]4C=CCCOC(=O)C4[C@H]2C(=O)N(CCCCCCO)[C@@H]3C1=O (some centres not stated) :: True
CC(=O)O[C@H]1C2=C(C(=O)[C@@H]3O[C@@H]31)[C@H]1C(C)O[C@@H]2[C@@]23C(=O)[C@@H]4O[C@@H]4[C@@H](O)C2=CO[C@H](C)[C@@H]13 (some centres not stated) :: False

Quick check, composite z-score >= -0.2? "O=C1[C@H]2[C@H]3[C@H](O)[C@H](O)CC(=NOC[C@@H](O)COCc4ccco4)[C@H]3CC[C@H]2C(=O)N1Cc1ccc2c(c1)OCO2"
False

Entry to check: "C=C(/C(=C/C[C@H](OC(=O)c1ccncc1)c1ccc(OCCO)cc1)c1cnc2ccccc2c1)C(C)C"
True

Entry to check: "CC(C)[C@@H](OCc1ccccc1)[C@H](C)C=NOC[C@@H](C)[C@H](OCc1ccccc1)C(C)C"
False

Entry to check: "COc1ccc(O[C@H]2C=C[C@@H](c3ccccc3)O[C@@H]2COC(=O)CCC(C)=NOCC[C@@H]2C=C[C@H](OC(C)=O)[C@@H](COC(C)=O)O2)cc1"
True

Entry to check: "CCCCC(=C=CC[C@H](O)c1ccccc1OCCO)C[C@H](O)COCc1ccccc1"
True

###

Experiment: binders of probe aFSTL3 on microarray, primary screen, stem cell growth factor project, biochemical, small-molecule microarray, fluorescence 635/667 (AID 1064);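 note: measures binding of the biotinylated anti-FSTL3 antibody to printed compounds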
Details: higher = more signal
MEASURE: composite z-score

Query (compound): Cn1cccc1C(O)C1C=CC2C(=O)NC(=O)C2N1Nc1ccccn1 (configuration not stated) ; field requested: composite z-score
-0.177

Entry to check: "COc1ccc(OC[C@H]2Cc3c(-c4ccccc4)nc4c(c3CO2)CN(CCOc2ccccc2)CC4)cc1"
-0.133

Entry to check: CC1CC/C=C\[C@H]2OC34C=CCN(Cn5nnc6ccccc65)C(=O)[C@H]3N(CCO)C(=O)[C@@H]4C2C(=O)O1 (some centres not stated)
0.398

Entry to check: "O=C1[C@H]2[C@H]3[C@H](O)[C@H](O)CC(=NOC[C@@H](O)COCc4ccco4)[C@@H]3CC[C@H]2C(=O)N1c1ccc(F)cc1F"
-0.469

Entry to check: "COc1ccc(O[C@H]2C=C[C@@H](c3ccccc3)O[C@@H]2COC(=O)CCC(C)=NO[C@@H](C)c2cc(-c3c(C)cc(C)cc3C)no2)cc1"
-0.0675

Entry to check: "C=CCOC(=O)[C@H]1[C@@H]2C(=O)O[C@@H](c3ccccc3)[C@@H](c3ccccc3)N2[C@@H](c2ccc(OCCOC(=O)[C@H]3C[C@H]4C(=O)N[C@@H](Cc5ccccc5)C(=O)N4[C@H]3c3ccc(O)cc3)cc2)[C@]12C(=O)Nc1ccccc12"
-0.298

Entry to check: CCCCCN1CC=CC23O[C@@H]4C=CCOC(=O)[C@@H]4[C@H]2C(=O)N(C(CO)C(C)C)[C@@H]3C1=O (some centres not stated)
0.232

###

Experiment: small-molecule microarray binders of probe aEGFR, primary screen, biochemical, biotinylated probe, 635/667 nm fluorescence (AID 1097);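 note: probe is a biotinylated anti-EGFR antibody binding compounds printed on slides; score combines fluorescence near 667 nm and signal to noise of each spot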
Settings: higher = more signal
MEASURE: composite z-score
When you answer, write just the number.

Answered examples (3):
C#CCCCON=C1C[C@@H](O)[C@@H](O)[C@@H]2[C@@H]3C(=O)N(c4cccc(Oc5ccccc5)c4)C(=O)[C@@H]3CC[C@@H]12 :: 0.0675
COc1ccccc1CN1C(=O)c2ccccc2[C@@H](C(=O)NCC(F)(F)F)[C@@H]1c1ccc(CO)cc1 :: -0.179
COc1ccc(CCNC(=O)[C@@H]2c3ccccc3C(=O)N(c3ccc(C)cn3)[C@H]2c2ccc(CO)cc2)cc1 :: -0.404

Let's switch to this molecule now.
Query (molecule): COC(=O)C1(C)C=C2C(=C(c3ccccc3)C(=O)C2C)CN1 (centres undefined) ; field requested: composite z-score
0.0003

###

Each item that follows carries a reported z-score.
Test: HepG2 cell viability effects, profiling panel, calcein-AM fluorescence, 48 h, basal (AID 1164); note: test concentration not given here
Details: higher = more signal
When you answer, write just the number.

Answered examples (6):
CC(C)[Si]1(C(C)C)O[C@@H](c2ccccc2)c2cc(C3CC3)nc(-c3ccccc3)c21 :: -0.244
CC(C)[C@H](NC(=O)OC(C)(C)C)[C@@H](O)CC(=O)OC(C)(C)C :: 0.026
COc1cccc([C@H]2Oc3ccc(OC)cc3C(=NO[C@H](C)c3cn([C@@H]4COC[C@H]4O)nn3)[C@@H]2O)c1 :: -0.428
COc1ccc([Si](C)(C)[C@H]2[C@H](CCO)O[C@@]3(C(=O)N(Cc4cccc(NC(=O)[C@H](C)O)c4)c4ccccc43)[C@@H]2C)cc1 :: -4.52
CCCC=C(CCC)[C@@H](NC(=O)c1ccc(-c2ccccc2)cc1)c1ccc(C(=O)OC)cc1 :: -0.166
CC(CCC(=O)OC[C@H]1O[C@H](C#Cc2ccccc2)C=C[C@@H]1Oc1ccc(C)cc1)=NOC[C@@H](O)COCc1ccco1 :: -0.45

Let's switch to this molecule now.
Query (molecule): "C=CC[C@@H]1C=C[C@H](ON=Cc2ccc(C(=O)N3[C@H](c4ccc(C)cc4)[C@@H](C)CC[C@H]3C(=O)OC)cc2)[C@@H](CO)O1" ; field requested: z-score
-0.431

###

Test: cell viability in Huh7 cells, primary screen, cytotoxicity control for HCV replication inhibitor project, CellTiter-Glo luminescence, basal, 48 h (AID 1143);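 note: Huh7 hepatoma cells carrying a hepatitis C replication reporter with no stimulus; test concentration not given here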
Conditions: Huh7 HCV replicon, higher = more signal, called active from +8 up or from −8 down
The source made the active and inactive calls.
Each item that follows carries a reported z-score.

COc1ccc(COC(=O)NN=C2C[C@@H](O)[C@@H](O)[C@@H]3[C@@H]4C(=O)N(Cc5ccc6c(c5)OCO6)C(=O)[C@@H]4CC[C@@H]23)cc1 :: -0.797 (inactive)
[N-]=[N+]=NCc1ccccc1[C@@H]1OC(c2ccc(OCCCO)cc2)=N[C@]1(Cc1ccccc1)C(=O)N1CCOCC1 :: -3.55 (inactive)

Query (compound): CCOC(=O)[C@H](Cc1ccccc1)NC(=O)CCC1CC(OC(=O)NCc2ccc3c(c2)OCO3)CC2(CCCC(COC(=O)NCc3cccc(C(F)(F)F)c3)O2)O1 (some centres undefined) ; field requested: z-score
-2.72 (inactive)

Entry to check: "CC(=O)OC[C@H]1O[C@H](CCON=C[C@@H](C)[C@H](OCc2ccccc2)C(C)C)C=C[C@@H]1OC(C)=O"
-0.305 (inactive)

###

Each item that follows carries a reported z-score.
Test: E. coli growth modulation, two-sided OD650, primary screen, E. coli filamentation project, strain DRC41, 24 h (AID 1093);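 note: MC1000 strain lacking acrAB efflux and sulA so SOS filamentation is blocked; test concentration not given here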
Settings: OD650, 24 h, higher = more signal, called active from +8 up or from −8 down
When you answer, write just the number.

O=C1[C@H]2[C@H]3[C@H](O)[C@H](O)CC(=NOCc4ccccc4)[C@@H]3CC[C@H]2C(=O)N1Cc1ccccc1 :: 0.263
C[C@H](c1ccccc1)N1C(=O)[C@H]2[C@H]3[C@H](O)[C@H](O)CC(=O)[C@@H]3CC[C@H]2C1=O :: -0.417
C=C(/C(=C/C[C@@H](OC(=O)c1ccncc1)c1ccc(OCCO)cc1)c1cnc2ccccc2c1)C(C)C :: 1.23

Let's switch to this molecule now.
Query (molecule): "CC(C)NC(=O)[C@@]1(C)c2ccccc2C(=O)N(Cc2cc(F)cc(C(F)(F)F)c2)[C@H]1c1ccc(CO)cc1" ; field requested: z-score
0.341

###

Test system: Inhibin beta A chain (activin A)
Test: INHBA (activin A) binders on microarrays, primary screen, biochemical, small-molecule microarray, 635 nm fluorescence scan (AID 1107);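 note: mouse activin A protein probed at 4.33 µg/mL on printed slides; score merges bound-protein fluorescence near 667 nm with spot signal-to-noise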
Settings: small-molecule microarray binding, higher = more signal
Criterion: composite z-score meeting or surpassing 0.2. Met: t. Not met: f.

// known answers, use as guide
COC(=O)[C@@H]1CCCN1C(=O)[C@@H](C)CO :: f
CC(C)(C)OC(=O)CC[C@]1(C(N)=O)COC(c2ccc(OCCCO)cc2)=N1 :: t
CO[C@H]1COC(=O)[C@H](C)NC(=O)[C@@H](C)COC(=O)CC=C[C@@H]1C :: f
COc1ccc(O[C@H]2C=C[C@@H](c3ccccc3)O[C@@H]2COC(=O)CCC(C)=NOC[C@@H](C)[C@H](OCc2ccccc2)C(C)C)cc1 :: t
CCCC=C(CCC)[C@@H](NC(=O)c1ccc(-c2ccccc2)cc1)c1ccc(C(=O)OC)cc1 :: t
COc1ccc([Si](C)(C)[C@@H]2[C@@H](CCO)O[C@]3(C(=O)N(Cc4ccc(NC(C)=O)cc4)c4ccccc43)[C@H]2C)cc1 :: t

Quick check, composite z-score >= 0.2? "CCOC(=O)CCN1C(=O)[C@H]2[C@H]3[C@H](O)C=CC(=O)[C@@H]3CC[C@H]2C1=O"
f

Entry to check: "CO[C@@H]1COC(=O)CCC[C@@H](C)[C@H](OC)COC(=O)CCC[C@H]1C"
f

Entry to check: "O=C1C[C@]2(c3ccc([N+](=O)[O-])cc3)C(=O)N(CCN3CCOCC3)c3cc(CO)ccc3[C@H]2N1CC12CC3CC(CC(C3)C1)C2"
t

Entry to check: "C[C@H](c1ccccc1)N1C(=O)[C@H]2[C@@H]3C(=CC[C@H]2C1=O)C(=O)[C@H]1O[C@H]1[C@H]3O"
t
